From: PubChem BioAssay (NCI)

- System: CAKI-1 renal
- Test description: NCI-60 one-dose screen, 48 h
- Applied conditions: 10 µM unless noted
Compounds without any hit were thinned out: in the full panel of roughly 83,000, 20% have a hit. Calls of active or inactive are those of the source. Rule for the calls: active = growth percent below 10; inactive = the rest.
Write down one outcome, taken from YES = active, NO = inactive

COc1nc(N(C)O)nc(N(C)O)n1 ... NO

Q. Could you kindly confirm the outcome this assay logged for O=C1/C(=C\c2c[nH]c3ccccc23)c2ccccc2N1c1c(Cl)cccc1Cl ?
A. YES

Q. And the next one, C=C1C(=O)O[C@H]2[C@H]1CC/C(COC(=O)C(=O)c1cn(C)c3ccc(OC)cc13)=C\CC[C@@]1(C)O[C@@H]21 ?
A. YES

Q. Can you handle NC1=NCc2nc3ccccc3c(=O)n2C1 next?
A. NO

Q. Further, for N/C(=N/N=C/c1ccccc1)N/N=C\c1ccccc1 ?
A. NO

Q. Would you kindly repeat that for C#Cc1cccc(NC(=O)c2ccc(NC(=O)CCl)cc2)c1 ?
A. YES

Q. Same question, CCCCCCCCCCCCCCCCCCOc1ccc(CC(=O)OCC[N+]2(C)CCCC2)cc1 this time
A. NO

Q. C[C@H]1[C@H]2[C@H]3CC[C@@H]4[C@@]5(C)C/C(=C/c6cccnc6)C(=O)C(C)(C)[C@@H]5CC[C@@]4(C)[C@]3(C)CC[C@]23CO[C@]1(C)[C@@H](C(=O)/C=C\c1cccnc1)C3 ?
A. YES

Q. Then this compound: O=C1c2cccc(NCCN=Cc3cc([N+](=O)[O-])ccc3O)c2C(=O)c2c(NCCN=Cc3cc([N+](=O)[O-])ccc3O)cccc21
A. NO

Q. Another: CN(C)CC1=NC2SC=C(c3ccccc3)C2C(=O)N1CC#N (stereo not drawn)
A. NO

Q. Try CC(C)(C)OC(=O)Nc1ccc2c(c1)C(NC(=O)Nc1cccc(C#N)c1)CC(C)(C)O2 (stereo not drawn) next.
A. NO

Q. // same read-out, input: COC(=O)[C@]12CC[C@@H](C)[C@H](C)[C@@H]1C1=CC[C@@H]3[C@@]4(C)C(C=O)=C[C@@](C)(COC(=O)c5ccco5)[C@@H]4C(=O)C[C@@]3(C)[C@]1(C)CC2
A. NO

Q. Then this compound: CCCCn1c(=O)c2c(nc(NCCc3ccc(O)c(O)c3)n2CCC)n(CCCC)c1=O
A. NO

---

Measured growth by item
- Test system: OVCAR-3 ovarian
- Test description: NCI-60 one-dose screen, 48 h (100 = growth as untreated, 0 = no growth, -100 = all killed)
- Applied conditions: 10 µM unless noted
This is part of a sample that, as a whole, favours compounds with a hit. Of some 83,000 tested, about 20% had one in any assay.
Give a bare numeral; the unit % is implied.

Reference set, count: 3
O=C(NC(Cc1nnc2n(Cc3ccccc3)c(=O)c3c4c(sc3n12)CCCC4)c1ccc(Cl)cc1)c1ccccc1 (stereo unspecified) ... 90.4
CCc1ccccc1NC(=O)/C(C#N)=C/c1ccc(OC)cc1 ... 92.6
COc1cccc(-c2nn(-c3ccccc3)cc2-c2ccnc(NCCNC(=O)Nc3ccccc3)c2)c1 ... 55.8

Q. Query for OVCAR-3 ovarian: what growth does the record show for Cc1c(C(=O)OC(=NC2CCCCC2)NC2CCCCC2)sc2c1c(=O)nc1c(C#N)n[nH]n12 ?
A. 105

Q. // query: N#CC1=C(/N=C/c2ccccc2)Oc2c(ccc3ccccc23)C1c1ccccc1 (stereo unspecified)
A. -2.72

Q. Another: CCN1CCN(c2cc(C)nc(NCc3cc(Nc4ccnc5cc(Cl)ccc45)ccc3F)n2)CC1
A. 101
